Tested on: NCI-H23 lung
PROTOCOL_DESCRIPTION: NCI tumour cell line growth inhibition, 48 h
Form field: TGI (one value per entry).
ASSAY_READOUT: TGI

[[record]]
molecule = "Cc1ccc(NC(=O)CCCC(=O)CC(=O)c2ccc(Br)cc2)cc1"
value_observed = "> 100 µM"

[[record]]
molecule = "CCOC(=O)c1c[nH]c(C(=O)OCC)c1-c1cccn1-c1ccccc1"
value_observed = "> 100 µM"

[[record]]
molecule = "O=C1CCN2c3ccccc3[C@H]3Cc4cccc(c4[C@@H]2C3)CCO1"
value_observed = "> 100 µM"

[[record]]
molecule = "CC1=C(c2nc3ccccc3s2)C(=O)OC1(C)C"
value_observed = "> 100 µM"

[[record]]
molecule = "CC(C)(C)c1cc(C(=O)Nc2ccccc2C(=O)NCCN)cc(C(C)(C)C)c1"
value_observed = "3.89 µM"

[[record]]
molecule = "CCCCC1=CSC(c2ccccc2)=C(c2ccccc2)S1"
value_observed = "> 100 µM"

[[record]]
molecule = "C#Cc1cccc(Nc2ncnc3cc(NC(=O)CCl)ccc23)c1"
value_observed = "8.01 µM"

[[record]]
molecule = "C=C1CC(C)(COc2ccc3c(C)c(Cl)c(=O)oc3c2)OC1=O (stereo unspecified)"
value_observed = "4.2 µM"

[[record]]
molecule = "FC(F)(F)c1ccc2c(c1)N(CCCNCCN1CCOCC1)c1ccccc1S2"
value_observed = "24.7 µM"

[[record]]
molecule = "COc1cc(OC2OC(CO)C(O)C(O)C2O)c2c(O)c3c(=O)cc(C)oc3cc2c1 (stereo unspecified)"
value_observed = "> 100 µM"

[[record]]
molecule = "COc1ccc(C(O)/C(=N/N)c2nc3ccc(Cl)cc3[nH]c2=O)cc1 (stereo unspecified)"
value_observed = "> 100 µM"

